Biological target: UniProt:O00748
Sequence (O00748 27-559): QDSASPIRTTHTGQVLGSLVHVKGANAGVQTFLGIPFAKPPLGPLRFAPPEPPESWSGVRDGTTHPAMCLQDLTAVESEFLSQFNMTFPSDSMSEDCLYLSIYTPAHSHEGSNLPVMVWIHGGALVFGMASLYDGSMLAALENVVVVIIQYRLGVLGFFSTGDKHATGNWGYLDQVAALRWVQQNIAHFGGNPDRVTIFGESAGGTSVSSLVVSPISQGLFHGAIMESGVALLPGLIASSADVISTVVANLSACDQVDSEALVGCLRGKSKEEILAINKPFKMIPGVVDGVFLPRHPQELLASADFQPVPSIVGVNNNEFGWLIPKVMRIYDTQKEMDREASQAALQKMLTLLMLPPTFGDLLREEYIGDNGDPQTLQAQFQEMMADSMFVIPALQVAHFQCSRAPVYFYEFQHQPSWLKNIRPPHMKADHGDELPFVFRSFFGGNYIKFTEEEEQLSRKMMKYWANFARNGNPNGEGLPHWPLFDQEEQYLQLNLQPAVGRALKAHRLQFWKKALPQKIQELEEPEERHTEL
Assay: Initial activity screening with recombinant hCES2
Settings: 100 µM substrate, 30 min, 37 °C, 0.2 µg/µL protein, LC–ITMS
Endpoint: Hydrolysis of carboxamide linker, hCES2

Compound: C=CCCCn1cc(C(=O)N[C@H](C(=O)OC)C(C)C)c2ccccc21 [MMB-4en-PICA]
Observed Value: −
//
Compound: COC(=O)[C@@H](NC(=O)c1cn(Cc2ccc(F)cc2)c2ccccc12)C(C)(C)C [MDMB-FUBICA]
Observed Value: −
//
Compound: COC(=O)C(Cc1ccccc1)NC(=O)c1cn(CCCCCF)c2ccccc12 (stereo not drawn) [MPhP-5F-PICA]
Observed Value: −

====

Molecular target: hCES1c (Homo sapiens, UniProt P23141)
Sequence (P23141 18-566 isoform P23141-3 limits assumed): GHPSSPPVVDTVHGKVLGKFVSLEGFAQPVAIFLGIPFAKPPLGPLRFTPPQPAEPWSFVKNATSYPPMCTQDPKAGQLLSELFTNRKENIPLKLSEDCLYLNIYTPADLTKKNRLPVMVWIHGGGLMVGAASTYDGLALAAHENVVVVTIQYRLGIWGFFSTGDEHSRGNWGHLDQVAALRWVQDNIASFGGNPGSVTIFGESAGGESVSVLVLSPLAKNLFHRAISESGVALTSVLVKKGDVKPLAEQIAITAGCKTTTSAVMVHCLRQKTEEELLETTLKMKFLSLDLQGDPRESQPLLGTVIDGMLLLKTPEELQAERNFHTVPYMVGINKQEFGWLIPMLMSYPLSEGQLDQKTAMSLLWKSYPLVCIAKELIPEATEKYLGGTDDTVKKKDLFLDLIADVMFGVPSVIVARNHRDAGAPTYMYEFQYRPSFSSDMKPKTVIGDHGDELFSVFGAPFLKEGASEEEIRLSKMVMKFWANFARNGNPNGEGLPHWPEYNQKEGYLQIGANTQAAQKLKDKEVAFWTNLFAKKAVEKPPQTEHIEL
Experiment: Initial activity screening with recombinant hCES1c
Conditions: 100 µM substrate, 30 min, 37 °C, 0.2 µg/µL protein, LC–ITMS, mean n = 2
Endpoint: Relative amount of hydrolysis metabolite formed, hCES1c

Molecule: COC(=O)[C@@H](NC(=O)c1cn(Cc2ccc(F)cc2)c2ccccc12)C(C)(C)C [MDMB-FUBICA]
Observed Value: below 1%
//
Molecule: COC(=O)[C@@H](NC(=O)c1nn(CCCCF)c2ccccc12)C(C)(C)C [MDMB-4F-BINACA]
Observed Value: below 1%
//
Molecule: C=CCCCn1nc(C(=O)N[C@H](C(=O)OC)C(C)(C)C)c2ccccc21 [MDMB-4en-PINACA]
Observed Value: below 1%

These measurements were taken from paper PMC9352624.
